// each record: one item and its pIC50 for UniProt:P22607
Sequence (P22607 397-806): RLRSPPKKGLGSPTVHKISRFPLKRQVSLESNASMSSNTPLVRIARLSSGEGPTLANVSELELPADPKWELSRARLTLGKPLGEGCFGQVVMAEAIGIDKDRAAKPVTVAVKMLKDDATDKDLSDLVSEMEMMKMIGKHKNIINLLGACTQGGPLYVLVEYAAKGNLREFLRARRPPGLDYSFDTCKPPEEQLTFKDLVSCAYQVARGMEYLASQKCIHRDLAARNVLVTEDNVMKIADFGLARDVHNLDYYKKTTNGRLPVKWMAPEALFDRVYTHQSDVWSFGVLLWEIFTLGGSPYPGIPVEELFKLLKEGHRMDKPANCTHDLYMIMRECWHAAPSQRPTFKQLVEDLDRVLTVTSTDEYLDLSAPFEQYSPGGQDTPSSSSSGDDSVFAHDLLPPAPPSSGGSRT
API: returns pIC50 as number; meaning -log10 of concentration in mol/L.

Query string: Returns the measured pIC50 for the input compound. Input: COc1cc(C)cc2cc(-c3cc(COCCNC(C)C)n4ncnc(N)c34)sc12 [Example 115]
Result string: 7.19

Query string: Requested read-out: pIC50. Entry: COc1cc(C)cc2cc(-c3cc(CNC4CC4)n4ncnc(N)c34)sc12 [Example 81]
Result string: 6.96

Query string: // lookup pIC50 for COc1cc(C)cc2cc(-c3cc(COCCN4CCOC4=O)n4ncnc(N)c34)sc12 [Example 116]
Result string: 7.15

Query string: Consider the compound COc1cc(C)cc2cc(-c3cc(CNC4CCN(C)CC4)n4ncnc(N)c34)sc12 [Example 69] and give its measured pIC50.
Result string: 7.22
